# System: SNU182
# EXPERIMENTAL PROTOCOL: Cell proliferation assay (Alamar Blue)
# Assay type: cell-based
# PROTOCOL CONDITIONS: Homo sapiens, SNU-182, 144 h; SNU182 liver cancer cell line; 6 days
ENDPOINT NAME: pIC50
Interpret pIC50 as the negative base-10 log of the concentration measured in mol/L.

Data point: Cc1ccc(F)c(NC(=O)Nc2ccc(-c3cccc4c3c(N)nn4C(=O)C[C@H](N)C(=O)N[C@@H](CCC(=O)N[C@@H](CCC(=O)N[C@@H](CCC(=O)N[C@@H](CCC(=O)O)C(=O)O)C(=O)O)C(=O)O)C(=O)O)cc2)c1 [Compound 2] ; pIC50 = 4.49

Notebook: Cc1ccc(F)c(NC(=O)Nc2ccc(-c3cccc4c3c(N)nn4C(=O)CCCCCCCCCCCNC(=O)C[C@H](N)C(=O)O)cc2)c1 [Compound 12] , pIC50 read as 4.71
